Measurement kind: glass transition temperature (°C)
Report only the number, with the unit °C understood.

Before answering, review these 3 worked examples.
-- ask Give glass transition temperature for the following compound: *Oc1ccc(S(=O)(=O)c2ccc(Oc3ccc(C4(c5ccc(*)cc5)c5ccccc5-c5ccccc54)cc3)cc2)cc1 (repeat unit)
-- reply 278.50

-- ask Identify measured glass transition temperature corresponding to *c1ccc(C(c2ccc(N3C(=O)c4ccc(-c5ccc6c(c5)C(=O)N(*)C6=O)cc4C3=O)cc2)(C(F)(F)F)C(F)(F)F)cc1 (repeat unit)
-- reply 343.00

-- ask Find the measured glass transition temperature of *CCC[Si](*)(C)C (repeat unit) and report it.
-- reply -55.00

Pending compound:
-- ask Determine from records and report glass transition temperature for *Cc1ccc(CNC(=O)CCCCCCCCC(=O)N*)cc1 (repeat unit)
-- reply 115.00
